We begin with a simple list: items and their reported IC50.
Molecular target: HIS-Keap1 full length / Biotin-Nrf2 (16-mer) (Homo sapiens, UniProt Q14145)
Sequence (Q14145 whole entry): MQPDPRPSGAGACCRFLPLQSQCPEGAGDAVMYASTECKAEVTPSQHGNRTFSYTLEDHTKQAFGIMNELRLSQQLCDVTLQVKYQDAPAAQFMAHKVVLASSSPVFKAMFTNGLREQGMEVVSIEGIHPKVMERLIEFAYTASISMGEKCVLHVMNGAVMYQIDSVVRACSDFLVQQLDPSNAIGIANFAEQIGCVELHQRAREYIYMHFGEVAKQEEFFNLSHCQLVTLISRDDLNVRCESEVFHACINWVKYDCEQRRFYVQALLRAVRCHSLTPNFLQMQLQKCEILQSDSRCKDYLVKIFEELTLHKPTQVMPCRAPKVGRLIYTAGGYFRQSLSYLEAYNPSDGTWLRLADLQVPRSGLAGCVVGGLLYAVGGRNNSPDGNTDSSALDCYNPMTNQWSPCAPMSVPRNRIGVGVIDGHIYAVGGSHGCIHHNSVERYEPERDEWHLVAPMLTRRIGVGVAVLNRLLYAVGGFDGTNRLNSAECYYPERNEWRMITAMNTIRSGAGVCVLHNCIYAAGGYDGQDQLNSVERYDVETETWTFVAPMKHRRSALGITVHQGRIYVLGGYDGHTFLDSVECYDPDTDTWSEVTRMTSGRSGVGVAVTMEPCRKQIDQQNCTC
Experiment: biochemical
Give just the number in nM; leave the unit off.

QUERY: Consider the compound Cc1c2ccc3c1nnn3CCCCCOc1ccc(cc1F)C(=O)N1CCc3ccc(cc3C1)C2CC(=O)O (stereo not shown) and give its measured IC50.
RESULT: 1.9

QUERY: Lookup Cc1c2ccc3c1nnn3CCCCCOc1ccc(c(F)c1)C(=O)N1CCc3ccc(cc3C1)[C@H]2CC(=O)O
RESULT: 4.1

QUERY: And for Cc1c2ccc3c1nnn3CCCCCCOc1ccc(cc1)C(=O)N1CCc3ccc(cc3C1)[C@@H]2[C@H](C)C(=O)O ?
RESULT: 5.7

QUERY: Another compound to check: Cc1cc2cc3c1CCN(C3)C(=O)c1ccc(cc1)CCCCCn1nnc3c(C)c(cnc31)C2CC(=O)O (stereo not shown)
RESULT: 0.8

QUERY: Moving on to Cc1cc2ccc1C(=O)N1CCc3ccc(cc3C1)C(CC(=O)O)c1cnc3c(nnn3CCCCCCO2)c1C (stereo not shown)
RESULT: 0.8

QUERY: Would you mind doing Cc1c2ccc3c1nnn3CCCCCCOc1ccc(cc1)C(=O)N1CCc3ccc(cc3C1)[C@@H]2[C@@H](C)C(=O)O as well?
RESULT: 1.6

QUERY: Another compound to check: Cc1c2ccc3c1nnn3C/C=C/CCCc1ccc(c(F)c1)C(=O)N1CCc3ccc(cc3C1)C2C(C)C(=O)O (stereo not shown)
RESULT: 1.4

* * *

System: NQO1 activation in BEAS-2B cells
Experiment: BEAS-2B cellular MTT assay of NQO1 activation, 0% HSA
Format: cell-based
Settings: Homo sapiens, serum free, read-out: BEAS EC50 (nM) serum free
Recorded EC50 by entry
Write the value in nM as a bare number.

molecule | valueUnits | EC50
Cc1c2ccc3c1nnn3CCCCCc1ccc(cc1)C(=O)N1CCc3ccc(cc3C1)[C@H]2CC(=O)O | nM | 15.8

QUERY: Which measured EC50 value corresponds to Cc1c2ccc3c1ncn3CCCCCCc1ccc(cc1)C(=O)N1CCc3ccc(cc3C1)[C@H]2CC(=O)O (single isomer, unassigned) ?
RESULT: 2250

QUERY: Then what about the molecule Cc1c2ccc3c1nnn3CCCCCCOc1ncc(cn1)C(=O)N1CCc3ccc(cc3C1)C2CC(=O)O (stereo not shown) ?
RESULT: 2940

QUERY: Can you check Cc1cc2ccc1C(=O)N1CCc3ccc(cc3C1)C(CC(=O)O)c1ccc3c(nnn3CCCCCCO2)c1C (stereo not shown) next?
RESULT: 1.8

* * *

Tested on: NQO1 activation in BEAS-2B cells
Test: BEAS-2B cellular MTT assay of NQO1 activation, 0% HSA
Type: cell-based
Conditions: Homo sapiens, serum free, read-out: BEAS EC50 (nM) serum free
valueKind: EC50 (nM)
// units = nM; emit number, no label

compound | reportedValue
Cc1c2ccc(c1C)C(=O)N1CCc3ccc(cc3C1)C(CC(=O)O)c1ccc3c(nnn3CCCCCCO2)c1C (stereo not drawn) | 3.2
Cc1c2ccc3c1nnn3CCCOCCOc1ccc(c(F)c1)C(=O)N1CCc3ccc(cc3C1)C2CC(=O)O (stereo not drawn) | 179
C[C@H](C(=O)O)[C@H]1c2ccc3c(c2)CN(CC3)C(=O)c2ccc(cc2)OCCCCCn2nnc3cc1ccc32 | 1840

QUERY: I have this compound here, Cc1cc2ccc1C(=O)N1CCc3ccc(cc3C1)C(CC(=O)O)c1ccc(nc1C)OCCCCO2 (stereo not drawn) , and I need its recorded EC50.
RESULT: 1160

QUERY: Again, but for Cc1c2ccc(c1C)C(=O)N1CCc3ccc(cc3C1)C(CC(=O)O)c1ccc3c(c1)nnn3CCCCCCO2 (stereo not drawn)
RESULT: 40.7

QUERY: Further, for O=C(O)CC1c2ccc3c(c2)CN(CC3)C(=O)c2ccc(cn2)CCCCCn2nnc3c(Cl)c1ccc32 (stereo not drawn) ?
RESULT: 178

QUERY: Same thing, different compound: Cc1cc2ccc1C(=O)N1CCc3ccc(cc3C1)C(CC(=O)O)c1cnc3c(nnn3CCCCCC2)c1C (stereo not drawn)
RESULT: 28.3

QUERY: Field entry: Cc1c2cnc3c1nnn3CCCCCCc1ccc(cc1)C(=O)N1CCc3ccc(cc3C1)[C@H]2CC(=O)O
RESULT: 11.6

QUERY: Try the compound O=C(O)CC1c2ccc(nc2)OCCCCCc2ccc(nc2)C(=O)N2CCc3ccc1cc3C2 (stereo not drawn)
RESULT: 1140

QUERY: // next record Cc1c2ccc3c1nnn3CCCCCc1ccc3c(c1)c(cn3C)C(=O)N1CCc3ccc(cc3C1)C2CC(=O)O (stereo not drawn)
RESULT: 3250

QUERY: Try Cc1cc2ccc1OCCCCCn1nnc3c(C)c(ccc31)C(CC(=O)O)c1ccc3c(c1)CN(CC3)C2=O (stereo not drawn) next.
RESULT: 89.8

QUERY: Repeat with Cc1c2ccc3c1nnn3CCCCCCOc1ccc(c(F)c1)C(=O)N1CCc3ccc(cc3C1)[C@@H]2CC(=O)O
RESULT: 7.4

QUERY: # repeat for Cc1cc2ccc1C(=O)N1CCc3ccc(cc3C1)C(CC(=O)O)c1ccc3c(nnn3CCCCCC2)c1C (stereo not drawn)
RESULT: 0.2

QUERY: Likewise for Cc1c2ccc3c1nnn3CCCCCCc1ccc(cc1)C(=O)N1CCc3ccc(cc3C1)[C@@H]2[C@@H](C)C(=O)O ?
RESULT: 0.5

QUERY: And for Cc1c2ccc3c1nnn3CCCCCCOc1cc(F)c(c(F)c1)C(=O)N1CCc3ccc(cc3C1)C2CC(=O)O (stereo not drawn) ?
RESULT: 2.2
